Origin of values: paper PMC4063182

TARGET OR SYSTEM: UniProtKB Q9NAV7
PROCEDURE DETAILS: 5-haloindole binding studies
TEST CONDITIONS: read-out: apparent dissociation constant (Kd); 10 μM ferric WT DHP B, 100 mM KPi pH 7, 10% MeOH
pKd: −log10 of the molar value.
Reported pKd by item:

{"STRUCTURE AS SMILES": "Clc1ccc2[nH]ccc2c1", "pKd": 3.50}
{"STRUCTURE AS SMILES": "Ic1ccc2[nH]ccc2c1", "pKd": 4.21}

* * *

TARGET OR SYSTEM: ferric WT DHP B (Amphitrite ornata)
Sequence (Q9NAV7 1-138): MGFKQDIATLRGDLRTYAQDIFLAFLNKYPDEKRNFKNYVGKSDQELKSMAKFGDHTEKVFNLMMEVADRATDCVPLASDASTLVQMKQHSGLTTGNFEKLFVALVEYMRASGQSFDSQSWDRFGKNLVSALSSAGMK
PROCEDURE DETAILS: 5-haloindole binding studies
pKd: −log10 of the molar value.
RECORDED ENDPOINT: pKd

{"STRUCTURE AS SMILES": "Brc1ccc2[nH]ccc2c1", "RECORDED ENDPOINT": "pKd", "RECORDED RESULT": 3.82}
